experiment: Selectivity index, ratio of EC50 for mouse J774A1 cells to EC50 for intracellular amastigote stage of Leishmania donovani MHOM/ET/67/L82; type: toxicity, cell-based, J774.A1; details: read-out: Ratio EC50
In this section, each of the molecules is paired with its reported selectivity ratio.
measurement-kind: selectivity ratio

* Cc1cccc2c(NCc3ccco3)nc(NC(C)C)nc12 | > 7.9
* Cc1ccc2nc(NC(C)C)nc(NCc3ccco3)c2c1 | > 7
* CC(C)Nc1nc(NCc2ccco2)c2cccc(Cl)c2n1 | > 7.5

* * *

Listed below: EC50 values for each entry.
assay: Cytotoxicity against mouse J774A1 cells after 72 hrs by MTT assay; format: cell-based; settings: J774.A1, 72 h
measurement-kind: EC50 (µM)

* CC(C)Nc1nc(NCc2ccco2)c2c(Cl)cccc2n1 | 25
* COc1cc([C@@H]2c3cc4c(cc3[C@H](O)[C@H]3COC(=O)[C@H]23)OCO4)cc(OC)c1OC | 0.25
* CNc1nc(NCc2ccccc2)nc2ccccc12 | 15
* COc1ccc2nc(NC(C)C)nc(NCc3ccco3)c2c1 | 14
* FC(F)(F)CNc1nc(NCc2ccco2)c2ccccc2n1 | 23
* CCCCNc1nc(NCc2ccccc2)nc2ccccc12 | 4.9
* COc1cccc2nc(NC(C)C)nc(NCc3ccco3)c12 | 18
* c1ccc(CNc2nc(NCc3ccccc3)c3ccccc3n2)cc1 | 5.5
* CCCCNc1nc(NCCCC)c2ccccc2n1 | 5.4

* * *

Catalogue of compounds with associated solubility
experiment: Aqueous solubility of the compound at pH 7.4; assay type: physicochemical; conditions: buffer
measurement-kind: solubility

- FC(F)(F)CNc1nc(NCc2ccco2)c2ccccc2n1: ≤ 10 µM
- CC(C)Nc1nc(N(C)C)c2ccccc2n1: ≤ 10 µM
- Cc1cccc2nc(NC(C)C)nc(NCc3ccco3)c12: ≤ 10 µM
- CC(C)Nc1nc(NCc2ccco2)c2ccc(Cl)cc2n1: ≤ 20 µM
- CC(C)Nc1nc(NCc2ccco2)c2ccccc2n1: ≥ 30 µM
- CNc1nc(NCc2ccccc2)c2ccccc2n1: ≥ 30 µM
- c1ccc(CNc2nc(Nc3ccccc3)c3ccccc3n2)cc1: ≤ 5 µM
- c1ccc(CNc2nc(Nc3ccccc3)nc3ccccc23)cc1: ≤ 5 µM
- Cc1ccc2c(NCc3ccco3)nc(NC(C)C)nc2c1: ≤ 20 µM
- CNc1nc(NCc2ccccc2)nc2ccccc12: ≤ 10 µM

* * *

settings: pampa, pH 7.4
Description: Passive transcellular permeability of the compound at pH 7.4 by PAMPA
measurement-kind: permeability (nm/s)

• Cc1ccc2nc(NC(C)C)nc(NCc3ccco3)c2c1 = 7890
• Cc1ccc2c(NCc3ccco3)nc(NC(C)C)nc2c1 = 7980
• CC(C)Nc1nc(NCC(F)(F)F)c2ccccc2n1 = 7800
• c1ccc(CNc2nc(Nc3ccccc3)c3ccccc3n2)cc1 = 6630
• CCOC(=O)CNc1nc(NC(C)C)nc2ccccc12 = 7440
• Cc1cccc2nc(NC(C)C)nc(NCc3ccco3)c12 = 8120
• CC(C)Nc1nc(N(C)C)c2ccccc2n1 = 11200
• CC(C)Nc1nc(NCc2ccco2)c2ccc(Cl)cc2n1 = 13800
• CCCCNc1nc(NCc2ccccc2)nc2ccccc12 = 10200
• CSCCNc1nc(NC(C)C)nc2ccccc12 = 14800
